Origin of measurements: the supplement of paper PMC11208160

EXPERIMENTAL_PROTOCOL: recombinant UMI read abundance after kanamycin selection (control-corrected) (log10(CPM+1)); higher = more efficient recombination; extreme values may be limits of the assay; sequences stand for … in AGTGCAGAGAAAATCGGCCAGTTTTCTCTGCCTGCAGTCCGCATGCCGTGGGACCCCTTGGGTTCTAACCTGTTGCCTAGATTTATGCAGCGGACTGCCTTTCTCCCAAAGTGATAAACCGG…AGGTTGGTTTCACT; site = the 11-nt donor
ASSAY_ENDPOINT: recombinant UMI read abundance (log10)

INSERT INTO assay_data (primary_sequence, assay_endpoint, measured_value) VALUES
  ('CGCCGAACATGGACCGGTTTTCCCGGTAATCCGTATTTGCT (site CGCCGAACTAG)', 'recombinant UMI read abundance (log10)', 2.15),
  ('TAATCAGCATGGACCGGTTTTCCCGGTAATCCGTATTTGGG (site TAATCAGCTCC)', 'recombinant UMI read abundance (log10)', 0.0129),
  ('GTGGCACCATGGACCGGTTTTCCCGGTAATCCGTATTTGCA (site GCGGCACCTTG)', 'recombinant UMI read abundance (log10)', 0),
  ('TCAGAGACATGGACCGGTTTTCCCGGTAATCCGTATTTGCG (site GCAGAGACTCG)', 'recombinant UMI read abundance (log10)', 0.00466),
  ('GAATGGCCATGGACCGGTTTTCCCGGTAATCCGTATTTGCG (site GAATGGCCTTG)', 'recombinant UMI read abundance (log10)', 0),
  ('GGGAGTCCATGGACCGGTTTTCCCGGTAATCCGTATTTGTT (site GGGAGTCCTAA)', 'recombinant UMI read abundance (log10)', 0.709);

----------
EXPERIMENTAL_PROTOCOL: recombinant barcode read abundance after kanamycin selection (control-corrected) (log10(CPM+1)); higher = more efficient recombination; sequences stand for … in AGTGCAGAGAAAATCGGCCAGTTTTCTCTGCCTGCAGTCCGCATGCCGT…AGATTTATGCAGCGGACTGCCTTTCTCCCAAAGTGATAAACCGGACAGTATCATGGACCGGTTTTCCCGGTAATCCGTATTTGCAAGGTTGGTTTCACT; site = the 11-nt target
Recorded recombinant barcode read abundance (log10) by entry
ASSAY_ENDPOINT: recombinant barcode read abundance (log10)

INSERT INTO measurements (primary_sequence, measured_value) VALUES
  ('TTGGGAGCTTGGGTTCTAACCTGTTGCTG (site TTGGGAGCTCA)', 2.92),
  ('TTACATGCTTGGGTTCTAACCTGTTGCCT (site TTACATGCTAG)', 1.27),
  ('GAAAGGGCTTGGGTTCTAACCTGTTGCCT (site GAAAGGGCTAG)', 0.566),
  ('CTACTAGCTTGGGTTCTAACCTGTTGCAG (site CTACTAGCTAT)', 0.173),
  ('GAGCCTACTTGGGTTCTAACCTGTTGCCT (site GAGCCTACTAG)', 1.29),
  ('CCAAGGCCTTGGGTTCTAACCTGTTGCCG (site TTCGCATCTAA)', 0.208),
  ('CGCCACACTTGGGTTCTAACCTGTTGCCT (site CGACACACTAG)', 0.426),
  ('ATATCGTCTTGGGTTCTAACCTGTTGCCT (site ATATCGTCTAG)', 1.61),
  ('ACAGGTTCTTGGGTTCTAACCTGTTGCCT (site AGAGGTTCTAG)', 0.283),
  ('AGTAAGACTTGGGTTCTAACCTGTTGCTT (site AGTAAGACTAC)', 0.354),
  ('GGCCGGGCTTGGGTTCTAACCTGTTGCCT (site GGCCGGGCTAG)', 0.219),
  ('ATCCCATCTTGGGTTCTAACCTGTTGCCT (site ATCCCATCTAG)', 0.619),
  ('AACAATGCTTGGGTTCTAACCTGTTGCCT (site AACACTGCTAG)', 0.33),
  ('ACTGTCACTTGGGTTCTAACCTGTTGCGG (site ACTGTCACTCC)', 3.28),
  ('TAGTTGACTTGGGTTCTAACCTGTTGCCA (site TAGTTTACTTG)', 0.0255),
  ('GTTGGAGCTTGGGTTCTAACCTGTTGCCT (site GTTGGAGCTAG)', 2.35),
  ('AAGGCCGCTTGGGTTCTAACCTGTTGCCT (site AAGGTCGCTAG)', 0.259),
  ('GCGTGGACTTGGGTTCTAACCTGTTGCCT (site GCGTCTACTAG)', 0.235),
  ('ACACTGGCTTGGGTTCTAACCTGTTGCCT (site ACGCTGGCTAG)', 0.025),
  ('ATTAATCCTTGGGTTCTAACCTGTTGCCT (site ATTAATCCTAG)', 0.0839),
  ('CTCATTCCTTGGGTTCTAACCTGTTGCTT (site CTCATTCCTAT)', 0.0615),
  ('CTGTCGCCTTGGGTTCTAACCTGTTGCCT (site CTGTCGCCTAG)', 0.276),
  ('GTCAGATCTTGGGTTCTAACCTGTTGCTT (site GTCAGATCTAA)', 0.398),
  ('AGTATGTCTTGGGTTCTAACCTGTTGCCT (site GGTATGTCTAG)', 0.0305),
  ('GTACAGGCTTGGGTTCTAACCTGTTGCAG (site TGACAGGCTCT)', 0.178),
  ('GTTTATACTTGGGTTCTAACCTGTTGCGT (site GTTTATACTAC)', 0.749),
  ('GAGCGTACTTGGGTTCTAACCTGTTGCAT (site GAGAGTACTAT)', 0.257),
  ('TCATATTCTTGGGTTCTAACCTGTTGCCT (site TCACATTCTAG)', 0.0604),
  ('GCAACCTCTTGGGTTCTAACCTGTTGCTA (site GCAACCTCTTA)', 1.92),
  ('TTGCCGACTTGGGTTCTAACCTGTTGCCA (site TTGTCGACTTG)', 0.116),
  ('TTGGCAGCTTGGGTTCTAACCTGTTGCCT (site TTGGAAGCTAG)', 0.061),
  ('GTCATGTCTTGGGTTCTAACCTGTTGCTG (site GTCATGTCTCA)', 1.5),
  ('GTCAAGCCTTGGGTTCTAACCTGTTGCTG (site GTCAAACCTCA)', 0.0753),
  ('TGGAGCCCTTGGGTTCTAACCTGTTGCAT (site TGGAGCCCTAT)', 0.211),
  ('ACGCGGCCTTGGGTTCTAACCTGTTGCCT (site CCGCGGCCTAG)', 0.42),
  ('TGTAGTCCTTGGGTTCTAACCTGTTGCTT (site TGTAGTCCTAG)', 0.187),
  ('AGCTTAGCTTGGGTTCTAACCTGTTGCCA (site AGCTTAGCTTG)', 0.387);

----------
EXPERIMENTAL_PROTOCOL: recombinant UMI read abundance after kanamycin selection (control-corrected) (log10(CPM+1)); higher = more efficient recombination; extreme values may be limits of the assay; sequences stand for … in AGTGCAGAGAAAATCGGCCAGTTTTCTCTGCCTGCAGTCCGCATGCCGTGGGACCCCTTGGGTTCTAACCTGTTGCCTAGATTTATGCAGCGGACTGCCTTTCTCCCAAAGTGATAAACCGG…AGGTTGGTTTCACT; site = the 11-nt donor
ASSAY_ENDPOINT: recombinant UMI read abundance (log10)

INSERT INTO assay_data (primary_sequence, assay_endpoint, measured_value) VALUES
  ('CGCCGTACATGGACCGGTTTTCCCGGTAATCCGTATTTGAT (site CGCCGTACTAT)', 'recombinant UMI read abundance (log10)', 1.37),
  ('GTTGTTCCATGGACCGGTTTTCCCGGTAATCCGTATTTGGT (site GTTGTTGCTAC)', 'recombinant UMI read abundance (log10)', 0.0845),
  ('ATCTATACATGGACCGGTTTTCCCGGTAATCCGTATTTGAA (site ATCTATACTTT)', 'recombinant UMI read abundance (log10)', 1.29),
  ('GGCGCCTCATGGACCGGTTTTCCCGGTAATCCGTATTTGGG (site GGCGCCTCTCC)', 'recombinant UMI read abundance (log10)', 0.0423);

----------
EXPERIMENTAL_PROTOCOL: recombinant barcode read abundance after kanamycin selection (control-corrected) (log10(CPM+1)); higher = more efficient recombination; sequences stand for … in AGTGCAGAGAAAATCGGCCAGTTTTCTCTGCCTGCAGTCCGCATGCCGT…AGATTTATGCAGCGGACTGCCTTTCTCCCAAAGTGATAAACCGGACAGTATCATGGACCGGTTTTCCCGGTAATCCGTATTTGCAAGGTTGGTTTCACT; site = the 11-nt target
Item-by-item account of recombinant barcode read abundance (log10)
ASSAY_ENDPOINT: recombinant barcode read abundance (log10)

INSERT INTO measurements (primary_sequence, measured_value) VALUES
  ('CTCCGCTCTTGGGTTCTAACCTGTTGCCT (site ATCCGCTCTAG)', 0.211),
  ('GCATGGACTTGGGTTCTAACCTGTTGCAG (site GCATGGACTCT)', 2.24),
  ('CAAGGGACTTGGGTTCTAACCTGTTGCGG (site CAGGGGACTCG)', 0.0306);
